These entries and their values trace back to the supplement of paper PMC10065799.

system: c-Abl (mouse); assay: phosphorylation enrichment, bacterial display (enrichment ratio); higher = better substrate or ligand; peptides without Tyr show the background;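 also: 11-residue human phosphosite peptides and single-mutation variants displayed on the E. coli surface, counted by deep sequencing, each peptide's frequency after selection divided by its frequency in the unselected input library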;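 also: frequency after pTyr selection over input frequency; kinase dosed for 20-30% of maximal phosphorylation in three min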
Field: class. Source value: phosphorylation enrichment. Ranges: Low (below 0.7), Mid (0.7 to below 0.9), High (0.9 or more)

{"BIOSEQUENCE": "EQLRAYLEGEC [HLA-C_Y183_T187E]", "TARGET SYSTEM": "c-Abl (mouse)", "CLASS NAME": "High"}
{"BIOSEQUENCE": "NSRFTYKLEVK [USH2A_Y3747_YF]", "TARGET SYSTEM": "c-Abl (mouse)", "CLASS NAME": "Mid"}
{"BIOSEQUENCE": "YETVKYINNER [ABCB7_Y345_F346I]", "TARGET SYSTEM": "c-Abl (mouse)", "CLASS NAME": "Low"}
{"BIOSEQUENCE": "IYRAAYFGVYD [SLC25A4_Y191]", "TARGET SYSTEM": "c-Abl (mouse)", "CLASS NAME": "High"}
{"BIOSEQUENCE": "LWKWKYEELKE [CCDC102B_Y299]", "TARGET SYSTEM": "c-Abl (mouse)", "CLASS NAME": "Mid"}
{"BIOSEQUENCE": "RSSKTYLKTRS [LPL_Y329_M328T]", "TARGET SYSTEM": "c-Abl (mouse)", "CLASS NAME": "Mid"}
{"BIOSEQUENCE": "PLDGEYFTLQI [TP53_Y327]", "TARGET SYSTEM": "c-Abl (mouse)", "CLASS NAME": "High"}
{"BIOSEQUENCE": "IRYPPYTDWNQ [ALDH3B2_Y365_H361R]", "TARGET SYSTEM": "c-Abl (mouse)", "CLASS NAME": "Low"}
{"BIOSEQUENCE": "DDKQPYEKKAE [HMGB1_Y144_A149E]", "TARGET SYSTEM": "c-Abl (mouse)", "CLASS NAME": "Mid"}
{"BIOSEQUENCE": "SVVVHYEPPEV [TP53_Y220_P219H]", "TARGET SYSTEM": "c-Abl (mouse)", "CLASS NAME": "High"}
{"BIOSEQUENCE": "EPVSDYINANI [PTPN11_Y304]", "TARGET SYSTEM": "c-Abl (mouse)", "CLASS NAME": "Low"}
{"BIOSEQUENCE": "LKALKYKSMKI [ITGA11_Y1098]", "TARGET SYSTEM": "c-Abl (mouse)", "CLASS NAME": "Low"}

====

target: Fes (UniProt P07332); experiment: phosphorylation enrichment, bacterial display (enrichment ratio); higher = better substrate or ligand; peptides without Tyr show the background
Sequence (P07332 whole entry, looked up): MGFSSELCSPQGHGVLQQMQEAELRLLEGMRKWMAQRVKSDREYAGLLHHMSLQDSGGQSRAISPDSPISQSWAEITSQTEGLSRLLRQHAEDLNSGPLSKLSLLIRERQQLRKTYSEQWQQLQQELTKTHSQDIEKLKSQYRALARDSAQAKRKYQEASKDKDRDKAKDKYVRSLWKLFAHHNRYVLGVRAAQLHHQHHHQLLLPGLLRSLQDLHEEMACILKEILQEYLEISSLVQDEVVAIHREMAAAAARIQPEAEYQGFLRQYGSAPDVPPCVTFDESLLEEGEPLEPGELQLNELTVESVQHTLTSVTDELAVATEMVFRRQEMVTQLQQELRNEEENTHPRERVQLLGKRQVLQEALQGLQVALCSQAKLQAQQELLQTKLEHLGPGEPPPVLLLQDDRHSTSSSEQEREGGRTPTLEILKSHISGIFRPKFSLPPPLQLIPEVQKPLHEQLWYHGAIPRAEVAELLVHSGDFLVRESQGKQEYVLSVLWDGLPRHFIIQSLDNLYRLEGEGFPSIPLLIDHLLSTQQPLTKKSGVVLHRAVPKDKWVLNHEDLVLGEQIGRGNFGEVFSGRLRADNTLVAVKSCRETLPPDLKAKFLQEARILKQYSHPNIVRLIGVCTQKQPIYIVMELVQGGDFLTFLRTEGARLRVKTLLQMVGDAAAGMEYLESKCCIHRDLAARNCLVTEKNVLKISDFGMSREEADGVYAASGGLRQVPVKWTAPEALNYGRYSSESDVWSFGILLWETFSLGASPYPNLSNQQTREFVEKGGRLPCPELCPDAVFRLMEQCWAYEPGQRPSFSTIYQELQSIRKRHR
Field: class. Source value: phosphorylation enrichment. Ranges: class 1 = under 0.7, class 2 = from 0.7 up to 1, class 3 = 1 and over

{"BIOSEQUENCE": "TSHKGYVAFLE [CARD9_Y76_G72S]", "CLASS NAME": "class 2"}
{"BIOSEQUENCE": "IENPQYFSDAC [NTRK1_Y496]", "CLASS NAME": "class 3"}
{"BIOSEQUENCE": "LARDMCDKEFF [MET_Y1230_Y1230C_YF]", "CLASS NAME": "class 3"}
{"BIOSEQUENCE": "DGQVNYEEFVQ [CALM1_Y139]", "CLASS NAME": "class 3"}
{"BIOSEQUENCE": "TNIKRYHIAKG [HARS1_Y150_V155G]", "CLASS NAME": "class 1"}
{"BIOSEQUENCE": "KTSGNYLPVTG [WDR19_Y28_A30P]", "CLASS NAME": "class 1"}
{"BIOSEQUENCE": "YTGSTYRVGDT [FN1_Y106_N104S]", "CLASS NAME": "class 2"}
{"BIOSEQUENCE": "WQQQSYLDSGS [CTNNB1_Y30_I35S]", "CLASS NAME": "class 2"}
{"BIOSEQUENCE": "HHIDYYKKTTN [FGFR1_Y654]", "CLASS NAME": "class 1"}
{"BIOSEQUENCE": "QSSALYEDRFL [ASS1_Y83_YF]", "CLASS NAME": "class 3"}
